- target_or_system: T1, human TREM2 (human) (UniProt Q9NZC2)
- T1 sequence (looked up): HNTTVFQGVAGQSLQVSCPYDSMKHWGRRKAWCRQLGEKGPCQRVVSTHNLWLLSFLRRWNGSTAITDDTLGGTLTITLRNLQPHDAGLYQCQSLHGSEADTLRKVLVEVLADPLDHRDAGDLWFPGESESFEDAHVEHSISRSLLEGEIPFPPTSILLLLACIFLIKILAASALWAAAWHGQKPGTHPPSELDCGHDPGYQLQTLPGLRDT
- assay_protocol: 2nd screen, 100 nM Ab
Attribute: Binding Signal (fold over 6E7 parental antibody)
assay_endpoint: Binding Signal (fold over 6E7 parental antibody) (fold)

| binder | unit_label | number |
| --- | --- | --- |
| 6E7 variant V11 (antibody, V domains shown) VH: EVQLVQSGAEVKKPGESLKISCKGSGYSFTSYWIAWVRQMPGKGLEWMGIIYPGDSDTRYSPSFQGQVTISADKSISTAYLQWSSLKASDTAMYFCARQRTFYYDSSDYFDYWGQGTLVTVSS VL: DIQMTQSPSSVSASVGDRVTITCRASQGISSWLAWYQQKPGKAPKLLIYAASSLQNGVPSRFSGSGSGTDFTLTISSLQPEDFATYFCQQAASFPRTFGQGTKLEIK | fold | 0.42 |
| 6E7 variant V67 (antibody, V domains shown) VH: EVQLVQSGAEVKKPGESLKISCKGSGYSFTSYWIAWVRQMPGKGLEWMGMIYPGDSDTRYSPSFQGQVTISADKSISTAYLQWSSLKASDTAMYFCARQRTFYYDSSDYFDYWGQGTLVTVSS VL: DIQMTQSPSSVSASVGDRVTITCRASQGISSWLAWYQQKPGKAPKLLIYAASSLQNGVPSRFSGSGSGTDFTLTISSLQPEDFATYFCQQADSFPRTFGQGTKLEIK | fold | 0.84 |
| 6E7 variant V44 (antibody, V domains shown) VH: EVQLVQSGAEVKKPGESLKISCKGSGYSFTSYWIAWVRQMPGKGLEWMGIIYPSDSDTRYSPSFQGQVTISADKSISTAYLQWSSLKASDTAMYFCARQRTFYYDSSDYFDYWGQGTLVTVSS VL: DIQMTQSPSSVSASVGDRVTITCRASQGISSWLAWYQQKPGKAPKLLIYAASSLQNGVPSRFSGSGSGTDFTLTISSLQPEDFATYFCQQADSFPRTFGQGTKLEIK | fold | 0.52 |
| 6E7 variant V18 (antibody, V domains shown) VH: EVQLVQSGAEVKKPGESLKISCKGSGYSFTSYHIAWVRQMPGKGLEWMGIIYPGDSDTRYSPSFQGQVTISADKSISTAYLQWSSLKASDTAMYFCARQRTFYYDSSDYFDYWGQGTLVTVSS VL: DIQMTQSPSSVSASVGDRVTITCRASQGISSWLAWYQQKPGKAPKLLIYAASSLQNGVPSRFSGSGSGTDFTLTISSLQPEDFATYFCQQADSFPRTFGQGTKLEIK | fold | 0.42 |
| 6E7 variant V34 (antibody, V domains shown) VH: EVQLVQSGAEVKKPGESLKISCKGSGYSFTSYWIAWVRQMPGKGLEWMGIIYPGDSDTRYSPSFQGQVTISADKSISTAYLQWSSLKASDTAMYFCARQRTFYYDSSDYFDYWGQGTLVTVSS VL: DIQMTQSPSSVSASVGDRVTITCRASQGISSWLAWYQQKPGKAPKLLIYAASSLQDGVPSRFSGSGSGTDFTLTISSLQPEDFATYFCQQADSFPRTFGQGTKLEIK | fold | 1.02 |
